In this section, each of the compounds is paired with its reported growth.
Tested on: HCC-2998 colon
assay.info: NCI-60 one-dose screen, 48 h (100 = growth as untreated, 0 = no growth, -100 = all killed)
test.parameters: 10 µM unless noted
Compounds without any hit were thinned out: in the full panel of roughly 83,000, 20% have a hit.
Value expressed in %; do not type the unit.

Previously resolved entries follow.
CC#Cc1nc2ccccc2c(=O)[nH]1	13.7
C=C1C(=O)O[C@H]2[C@H]1CC/C(Cn1cc(Cn3ccc4ccccc43)nn1)=C\CC[C@@]1(C)O[C@@H]21	69

# compound COc1ccc2c(c1)C(=O)/C(=C/c1cccc(OCC(=O)Nc3nc4c(s3)CCCC4)c1)O2 ; its growth = -66.7

# compound COc1cnc2c(c1)C(=O)c1c-2n(CCCBr)c(=O)c2cc([N+](=O)[O-])ccc12 ; its growth = 13.7

# compound C=C1CC[C@@H]2[C@](C)(COC(C)=O)[C@H](OC(C)=O)CC[C@@]2(C)[C@@H]1CC(Nc1ccc(S(=O)(=O)Nc2ccc(Cl)nn2)cc1)C1=CCOC1=O (some centres undefined) ; its growth = 88.5

# compound COc1cccc(-c2nc3sccn3c2-c2ccnc(NCCCNS(=O)(=O)c3ccccc3)c2)c1 ; its growth = 67.4

# compound Cn1c2c(Cl)c(Cl)ccc2c2ccn3c(=O)c4ccccc4nc3c21 ; its growth = 100

# compound Cc1cccc(NC(=O)c2sc3nc4c(cc3c2N)C(=O)CCC4)c1 ; its growth = 33.7

# compound O=[N+]([O-])c1cccc(-c2nc3sccn3c2-c2ccnc(NCCCNS(=O)(=O)c3ccc(Br)cc3)n2)c1 ; its growth = 102
